- system-under-test: Glutamate NMDA receptor (Rattus norvegicus) (UniProt P35439+Q00959+Q00960+Q00961+Q62645+Q8VHN2+Q9R1M7)
- run-description: Affinity for the NMDA receptor site was assessed by the ability to displace [3H]CPP from its binding site in rat synaptic membranes at a concentration of 100 uM
- Format: cell membranes
recorded-metric: inhibition (%)

>>> experimental_result("NC(Cc1nc2ccccc2n1CP(=O)(O)O)C(=O)O (stereo in doubt; 8)")
30

1 = Cc1cc2nc(CC(N)C(=O)O)n(CP(=O)(O)O)c2cc1C (single isomer, unassigned; (-))
2 = NC(Cc1nc2ccccc2n1CC(=O)O)C(=O)O (single isomer, unassigned; (-))
3 = CCOC(=O)C(N)Cc1nc2ccccc2n1CP(=O)(O)O (single isomer, unassigned; (-))
Problem: Put the items in order so that reported inhibition rises from first to last. Labels, ranked as asked.
Result: 2, 3, 1
(2: 30%, 3: 61%, 1: 99.7%)

----------
- system-under-test: Glutamate NMDA receptor
- run-description: Affinity for the NMDA receptor site was assessed by its ability to displace [3H]TCP from its binding site in rat brain
- Format: tissue-based
recorded-metric: IC50 (µM)
Answer in µM, number only, no unit symbol.

>>> experimental_result("NC(Cc1nc2ccccc2n1CP(=O)(O)O)C(=O)O (single isomer, unassigned; (-))")
11.1
>>> experimental_result("NC(Cc1nc2cc(Br)ccc2n1CP(=O)(O)O)C(=O)OCc1ccccc1 (stereo not given)")
15.5
>>> experimental_result("NC(Cc1nc2cc(Cl)ccc2n1CP(=O)(O)O)C(=O)OCc1ccccc1 (stereo not given)")
46.5

Lab note: measured IC50 of NC(Cc1nc2ccc(Cl)cc2n1CP(=O)(O)O)C(=O)O (single isomer, unassigned; (-)) was 13.6

Lab note: measured IC50 of N[C@H](Cc1nc2cc(Cl)ccc2n1CP(=O)(O)O)C(=O)O was 0.72

----------
- system-under-test: Glutamate NMDA receptor
- run-description: Displacement of [3H]CPP from rat synaptic membrane glutamate NMDA receptor
pIC50: −log10 of the molar value.
recorded-metric: pIC50

Sample answers from the record:
>>> experimental_result("N[C@H](Cc1nc2cc(Cl)ccc2n1CP(=O)(O)O)C(=O)O")
8.15
>>> experimental_result("NC(CCc1nc2ccccc2n1CP(=O)(O)O)C(=O)O (single isomer, unassigned; (-))")
5.17
>>> experimental_result("NC(Cc1nc2cc(Br)ccc2n1CP(=O)(O)O)C(=O)OCc1ccccc1 (stereo unspecified)")
7.25

1 = NC(CCc1nc2ccccc2n1CP(=O)(O)O)C(=O)O (stereo in doubt; 10)
2 = NC(Cc1nc2cc(C(F)(F)F)ccc2n1CP(=O)(O)O)C(=O)O (stereo unspecified)
3 = NC(Cc1nc2cc(Cl)ccc2n1CP(=O)(O)O)C(=O)OCc1ccccc1 (stereo unspecified)
Problem: Please list these molecules in decreasing order of pIC50. Labels, ranked as asked.
Result: 3, 2, 1

----------
- system-under-test: Glutamate NMDA receptor
- run-description: Displacement of [3H]CPP from rat synaptic membrane glutamate NMDA receptor
recorded-metric: IC50 (µM)
Answer in µM, number only, no unit symbol.

Sample answers from the record:
>>> experimental_result("NC(Cc1nc2cc(Cl)c(Cl)cc2n1CP(=O)(O)O)C(=O)O (single isomer, unassigned; (-))")
0.018
>>> experimental_result("NC(Cc1nc2ccc(Cl)cc2n1CP(=O)(O)O)C(=O)O (single isomer, unassigned; (-))")
0.022
>>> experimental_result("NC(Cc1nc2cc(Cl)c(Cl)cc2n1CP(=O)(O)O)C(=O)O (single isomer, unassigned; (+))")
1

Below: the item to evaluate.
Lab note: measured IC50 of NC(Cc1nc2ccccc2n1CP(=O)(O)O)C(=O)O (single isomer, unassigned; (-)) was 0.077
